Documented pIC50 across a set of compounds
Biological target: C-IAP1 BIR3 (Homo sapiens, UniProt Q13490)
Construct: 0.2 μM C-IAP1 BIR3
Sequence (Q13490 253-363 limits assumed): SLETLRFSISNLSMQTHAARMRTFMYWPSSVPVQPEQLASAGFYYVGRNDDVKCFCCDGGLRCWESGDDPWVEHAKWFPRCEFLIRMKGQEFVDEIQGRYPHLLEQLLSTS
Assay: Fluorescence polarization peptide binding assay, C-IAP1 BIR3
Details: 0.2 μM C-IAP1 BIR3, 5 nM AVP-diPhe-FAM probe, one hour incubation
Please note pIC50 is a logarithmic value: minus log10 of concentration in mol/L. Answer with that number alone.

A selection of reference data follows.
>  <TEST SMILES>
CN[C@@H](C)C(=O)N[C@H](C(=O)N[C@H](C(=O)Nc1snnc1-c1ccccc1)C(C)(C)SCc1ccc(OC)cc1)C1CCCCC1

>  <pIC50>
6.54

$$$$
>  <TEST SMILES>
CN[C@H](C)C(=O)N[C@@H](C(=O)N[C@@H](C(=O)NCC(c1ccccc1)c1ccccc1)C(C)(C)C)C1CCCCC1

>  <pIC50>
5.44

$$$$
>  <TEST SMILES>
CN[C@@H](C)C(=O)N[C@H](C(=O)N[C@H](C(=O)Nc1sc(-c2cnccn2)nc1-c1ccccc1)C(C)(C)C)c1ccccc1

>  <pIC50>
4.87

$$$$
>  <TEST SMILES>
CN[C@@H](C)C(=O)N[C@H](C(=O)N[C@H](C(=O)Nc1snnc1-c1ccccc1)C(F)(F)F)C1CCCCC1

>  <pIC50>
5.67

$$$$
>  <TEST SMILES>
CN[C@@H](C)C(=O)N[C@H](C(=O)N[C@H](C(=O)NCC(c1ccccc1)c1ccccc1)C(C)(C)SC)C1CCCCC1

>  <pIC50>
5.41

$$$$

Could you now look at the following compound, please?
Look up pIC50 for this compound: CN[C@@H](C)C(=O)N[C@H](C(=O)N(C)[C@H](C(=O)Nc1snnc1-c1ccccc1)C(C)C)C1CCCCC1
6.85

* * *

Target: ML/X-IAP chimera MLXBIR3SG (Homo sapiens, UniProt Q96CA5, S150G)
Sequence (Q96CA5 with tags, fused parts or gaps S150G): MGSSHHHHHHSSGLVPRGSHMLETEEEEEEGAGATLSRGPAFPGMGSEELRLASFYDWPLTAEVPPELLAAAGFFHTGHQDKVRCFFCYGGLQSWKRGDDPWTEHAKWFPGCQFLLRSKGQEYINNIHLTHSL
Assay: Fluorescence polarization peptide binding assay, MLXBIR3SG
Settings: determined from the IC50 values (procedure of Keating et al.)
Label Yes when Ki < 600 nM; otherwise No.

# example entries with known answers
>  <TEST SMILES>
CN[C@H](C)C(=O)N[C@@H](C(=O)N[C@@H](C(=O)NCC(c1ccccc1)c1ccccc1)C(C)(C)C)C1CCCCC1

>  <TGT>
ML/X-IAP chimera MLXBIR3SG (Homo sapiens, UniProt Q96CA5, S150G)

>  <LABEL CLASS>
No

$$$$
>  <TEST SMILES>
CN[C@@H](C)C(=O)N[C@H](C(=O)N[C@H](C(=O)Nc1snnc1-c1ccccc1)C(C)(C)F)C1CCCCC1

>  <TGT>
ML/X-IAP chimera MLXBIR3SG (Homo sapiens, UniProt Q96CA5, S150G)

>  <LABEL CLASS>
Yes

$$$$
>  <TEST SMILES>
CN[C@@H](C)C(=O)N[C@H](C(=O)N[C@H](C(=O)Nc1cc(C)nn1-c1ccccc1)C(C)(C)SCc1ccc(OC)cc1)C1CCCCC1

>  <TGT>
ML/X-IAP chimera MLXBIR3SG (Homo sapiens, UniProt Q96CA5, S150G)

>  <LABEL CLASS>
No

$$$$

Given CN[C@@H](C)C(=O)N[C@H](C(=O)N[C@H](C(=O)NCC(c1ccccc1)c1ccccc1)C(C)(C)SC)C1CCCCC1 , is recorded Ki strictly lower than 600 nM?
No

And what about the compound CN[C@@H](C)C(=O)N[C@H](C(=O)N[C@H](C(=O)NCC(c1ccccc1)c1ccccc1)C(F)(F)F)C1CCCCC1 ?
Yes

And what about the compound CN[C@@H](C)C(=O)N[C@H](C(=O)N[C@H](C(=O)NCC(c1ccccc1)c1ccccc1)C(C)(C)O)C(C)C ?
Yes
